So I've got a bunch of binders here, and I need their MFI pH 7.4 values.
target: T1, human CD3 on CD3+ Jurkat cells (human, UniProt P07766 23-207); assay: flow cytometry, 100 nM IgG on CD3+ Jurkat cells, pH 7.4
T1 construct: whole, on cells; Native CD3 complex on cells; the other CD3 chains are not specified for this assay; also called Human CD3+ Jurkat
T1 sequence (P07766 23-207): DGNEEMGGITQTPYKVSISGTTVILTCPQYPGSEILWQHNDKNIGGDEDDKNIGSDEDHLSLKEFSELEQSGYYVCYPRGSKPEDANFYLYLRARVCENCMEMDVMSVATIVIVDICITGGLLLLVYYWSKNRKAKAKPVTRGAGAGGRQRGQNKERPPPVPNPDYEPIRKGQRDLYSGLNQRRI
Please reply with the bare figure in MFI and do not write the unit itself.

Looking for the measured MFI pH 7.4 of SAD10319_P03_A08 (ADI-48636) (antibody, V domains shown, IgG; also called Ab230) VH: QVQLVQSGAEVKKPGASVKVSCKASGYTFTDYDMHWVRQAPGQRLEWMGWIDAGTGLTKYSQKFQGRVTITRDTSASTAYMELSSLRSEDTAVYYCARDHYGHYFYDVWGQGTLVTVSS VL: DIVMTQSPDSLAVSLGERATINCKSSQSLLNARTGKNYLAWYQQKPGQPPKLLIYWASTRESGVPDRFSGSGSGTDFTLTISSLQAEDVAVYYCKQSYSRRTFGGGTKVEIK , can you help?
35

I am curious: what MFI pH 7.4 value has been reported for SAD10320_P01_E01 (ADI-48645) (antibody, V domains shown, IgG; also called Ab49) VH: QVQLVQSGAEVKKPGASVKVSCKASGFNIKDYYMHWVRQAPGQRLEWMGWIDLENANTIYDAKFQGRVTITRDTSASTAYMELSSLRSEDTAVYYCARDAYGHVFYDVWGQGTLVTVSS VL: DIVMTQSPDSLAVSLGERATINCKSSQSLLNARTGKNYLAWYQQKPGQPPKLLIYWASTRESGVPDRFSGSGSGTDFTLTISSLQAEDVAVYYCKQSYKHRTFGGGTKVEIK ?
41

Sample SAD10320_P04_H11 (ADI-48662) (antibody, V domains shown, IgG; also called Ab116) VH: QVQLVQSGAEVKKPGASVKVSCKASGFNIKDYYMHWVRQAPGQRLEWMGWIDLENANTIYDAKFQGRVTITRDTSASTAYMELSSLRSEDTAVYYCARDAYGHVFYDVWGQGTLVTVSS VL: DIVMTQSPDSLAVSLGERATINCKSSQSLLNARTGKNYLAWYQQKPGQPPKLLIYWASTRESGVPDRFSGSGSGTDFTLTISSLQAEDVAVYYCKQSYQHRTFGGGTKVEIK — what was its MFI pH 7.4?
44
